- assayedSystem: Tumor necrosis factor receptor superfamily member 10B (Homo sapiens)
- measurementDescription: compound enhancement of TRAIL-induced cell killing – NB7 cells plus caspase-8, luminescence, panel, dose response (AID 652002)
- studyConditions: NB7 neuroblastoma +caspase-8, TRAIL sensitization, luminescence viability; NB7+Caspase-8; with TRAIL, mean of runs
Active and inactive are the calls of the source. How the calls were made is not given here.
Could you please report measured EC50 for the items listed next?

Before answering, review these 3 worked examples.
compound	EC50
CCOC(=O)c1sc(NC(=O)c2cccc(S(=O)(=O)N3CCc4ccccc43)c2)c(C#N)c1C	> 12.5 µM (inactive)
O=c1[nH]c(=S)[nH]c2c1C(c1ccc(Cl)c(Cl)c1)OC(CCc1ccccc1)C2 (stereo not given)	> 12.5 µM (inactive)
CCN(CC)S(=O)(=O)c1ccc(C(=O)OCC(=O)Nc2ccc(-c3nc4ccc(C)cc4s3)cc2)cc1	> 12.5 µM (inactive)

Ask: Quickly give me recorded EC50 for CC1(C)N=C(N)N=C(N)N1c1ccc(CCCCc2ccccc2)cc1
Result: < 0.39 µM (inactive)

----------
- assayedSystem: NB7+Caspase-8
- measurementDescription: compound enhancement of TRAIL-induced cell killing – NB7 cells plus caspase-8, luminescence, panel, dose response (AID 652002)
- studyConditions: NB7 neuroblastoma +caspase-8, TRAIL sensitization, luminescence viability, with TRAIL, run 1, single replicate panel EC50
pEC50: −log10 of the molar value.
observedProperty: pEC50

Here are 2 compounds together with their reported answers.
compound	assayedSystem	pEC50
O=C(Nc1ccc2ccccc2c1)c1ccc(Cl)cc1	NB7+Caspase-8	< 4.90
O=c1[nH]c(=S)[nH]c2c1C(c1ccc(Cl)c(Cl)c1)OC(CCc1ccccc1)C2 (stereo not drawn)	NB7+Caspase-8	< 4.90

Ask: Please tell me the measured pEC50 for Cc1ccc(N=C/C(C(=O)C(F)(F)F)=C(\O)c2cccs2)cc1 ; system: NB7+Caspase-8.
Result: 5.21

----------
- measurementDescription: compound enhancement of TRAIL-induced cell killing – NB7 cells plus caspase-8, luminescence, panel, dose response (AID 652002)
- studyConditions: NB7 neuroblastoma +caspase-8, no TRAIL, compound-alone cytotoxicity counter-screen, luminescence viability; NB7+Caspase-8; run 2; single replicate panel EC50
observedProperty: EC50

Past entries and their recorded results:
compound	val
CSc1ccc(/C=C/c2ccc3cccc(O)c3n2)cc1	> 12.5 µM
CN(C)c1ccc(N/C=C/C(=O)c2ccco2)cc1	> 12.5 µM
O=C(Nc1cnc2ccccn2c1=O)c1ccc(Cl)cc1Cl	> 12.5 µM
CCN(CC)S(=O)(=O)c1ccc(C(=O)OCC(=O)Nc2ccc(-c3nc4ccc(C)cc4s3)cc2)cc1	> 12.5 µM

Answer for every listed entry: what is its EC50? The entries follow.
1. Cc1nc2cc(NC(=O)Nc3cccc([N+](=O)[O-])c3)ccc2n1C
2. C=Cc1ccc(Cn2c(C)c(C(=O)NCc3cccc(C(F)(F)F)c3)sc2=O)cc1
3. CSc1nc(N)n2nc(-c3ccc(Cl)cc3)cc2n1
4. CC(C)CCn1c(=O)c(C(=O)Nc2ccccc2S(N)(=O)=O)c(O)c2ccccc21
5. Cc1c(P(=S)(c2ccccc2)c2ccccc2)[n+]2ccccc2n1CCc1ccccc1
6. Cc1cc(NC(=O)c2cncc(Br)c2)ccc1NC(=O)c1cc2ccccc2o1
7. COc1ccccc1/C=C/C=N/n1c(-c2cc(-c3ccccc3)n[nH]2)n[nH]c1=S
8. CN(C)S(=O)(=O)c1ccc(C(=O)Nc2nnc(SCC(=O)NCC3CCCO3)s2)cc1 (stereo not given)

Result:
1. > 12.5 µM
2. > 12.5 µM
3. > 12.5 µM
4. > 12.5 µM
5. > 12.5 µM
6. > 12.5 µM
7. > 12.5 µM
8. > 12.5 µM

Go through the list and state EC50 for each entry.
1. O=C(c1cnc(Cl)c(Cl)c1)N1CCN(S(=O)(=O)c2ccc3ccccc3c2)CC1
2. O=C1CCCCC1Sc1nnc(-c2ccc3c(c2)OCO3)o1 (stereo not given)
3. CC(=O)c1ccc(NC(=O)Nc2cccnc2)cc1
4. CC1(C)N=C(N)N=C(N)N1c1ccc(Oc2ccc(Cl)cc2)c(Cl)c1
5. COc1cccc(NC(=O)Nc2nccc(C)n2)c1

Result:
["> 12.5 µM", "11 µM", "10.2 µM", "0.423 µM", "> 12.5 µM"]

----------
- assayedSystem: Tumor necrosis factor receptor superfamily member 10B (Homo sapiens)
- measurementDescription: compound enhancement of TRAIL-induced cell killing – NB7 cells plus caspase-8, luminescence, panel, dose response (AID 652002)
- studyConditions: NB7 neuroblastoma +caspase-8, TRAIL sensitization, luminescence viability; NB7+Caspase-8; with TRAIL, mean of runs
The source made the active and inactive calls. How the calls were made is not given here.
observedProperty: EC50

Below, each entry is followed by its recorded EC50 result.
compound	EC50
CN(C)CCCN(C(=O)c1ccc(C(=O)c2ccccc2)cc1)c1nc2ccc(F)cc2s1	> 12.5 µM (inactive)
O=C(Nc1ccc(Br)cc1F)c1ccc2c(c1)OCCO2	inactive
O=C(Nc1ccc2c(c1)OCO2)c1ccc2c(c1)OCO2	inactive
CN(C)S(=O)(=O)c1ccc(C(=O)Nc2nnc(SCC(=O)NCC3CCCO3)s2)cc1 (stereo not given)	> 12.5 µM (inactive)

Now for another entry.
Ask: Identify measured EC50 obtained with Tumor necrosis factor receptor superfamily member 10B (Homo sapiens) for COc1ccc(-c2cc(C(=O)N/N=C/c3cccnc3)c3ccccc3n2)cc1 .
Result: > 12.5 µM (inactive)

----------
I'd appreciate it if you could supply EC50 values for the items below.
- measurementDescription: compound enhancement of TRAIL-induced cell killing – NB7 cells plus caspase-8, luminescence, panel, dose response (AID 652002)
- studyConditions: NB7 neuroblastoma +caspase-8, no TRAIL, compound-alone cytotoxicity counter-screen, luminescence viability; NB7+Caspase-8; mean of runs
Active and inactive are the calls of the source. The rule behind the calls is not given here.

Examples with their reported EC50 follow.
itemSmiles	EC50
Cc1cc(NC(=O)c2cncc(Br)c2)ccc1NC(=O)c1cc2ccccc2o1	> 12.5 µM (inactive)
COc1ccc(/C(C)=N/Nc2nncc3ccccc23)cc1	> 12.5 µM (inactive)

Ask: For the compound Fc1ccc(-c2cnn3c(-c4ccncc4)ccnc23)cc1 , give its measured EC50 value.
Result: > 12.5 µM (inactive)

----------
- assayedSystem: Tumor necrosis factor receptor superfamily member 10B (Homo sapiens)
- measurementDescription: compound enhancement of TRAIL-induced cell killing – NB7 cells plus caspase-8, luminescence, panel, dose response (AID 652002)
- studyConditions: NB7 neuroblastoma +caspase-8, TRAIL sensitization, luminescence viability; NB7+Caspase-8; with TRAIL, mean of runs
Active and inactive are the calls of the source. The rule behind the calls is not given here.
observedProperty: EC50

Here is how some molecules turned out for EC50.
molecule	val
COc1cc(SC#N)ccc1N=Cc1c(C)[nH]n(-c2ccc(Cl)cc2)c1=O	> 12.5 µM (inactive)
COC(=O)c1ccc(/C=C/c2nc3ccccc3c(=O)[nH]2)cc1	> 12.5 µM (inactive)
COc1ccc(-c2cc(C(=O)OCC(=O)Nc3ccc4c(c3)OCO4)c3ccccc3n2)cc1	inactive
O=C(NC(=O)c1ccccc1)Nc1ccccc1	> 12.5 µM (inactive)

Each molecule below has a recorded value; state its EC50.
1. CC(C)C[C@H](NC(=O)c1nc[nH]c1C(=O)N[C@@H](CC(C)C)C(=O)OCc1ccccc1)C(=O)OCc1ccccc1
2. Cc1ccc2c(c1)-c1nc3ccccc3cc1C2=NC1CCCCC1
3. Cn1nnc(NC(=O)c2ccc(C(C)(C)C)cc2)n1
4. COc1cccc(C(=O)Nc2ccc(C3CC3(Cl)Cl)cc2)c1 (centres undefined)

Result:
> 12.5 µM (inactive)
inactive
inactive
> 12.5 µM (inactive)

----------
- measurementDescription: compound enhancement of TRAIL-induced cell killing – NB7 cells plus caspase-8, luminescence, panel, dose response (AID 652002)
- studyConditions: NB7 neuroblastoma +caspase-8, no TRAIL, compound-alone cytotoxicity counter-screen, luminescence viability; NB7+Caspase-8; run 1; single replicate panel EC50
Give pEC50 for every item shown.
Give bare numbers, as −log10 of the molar value.

Consider the reported pEC50 for these compounds:
itemSmiles	observedProperty	val
Cc1ccc(NC(=O)c2cc3ccccc3o2)nc1	pEC50	5.13
O=C(N/N=C/c1cccc(OC(=O)c2ccco2)c1)c1ccc(F)cc1	pEC50	5.35

Ask: Using known records, supply pEC50 for Cc1ccc(NC(=O)c2ccccc2O)cc1
Result: 4.95

----------
- assayedSystem: Tumor necrosis factor receptor superfamily member 10B (Homo sapiens) (UniProt O14763)
- Sequence (O14763 whole entry, looked up): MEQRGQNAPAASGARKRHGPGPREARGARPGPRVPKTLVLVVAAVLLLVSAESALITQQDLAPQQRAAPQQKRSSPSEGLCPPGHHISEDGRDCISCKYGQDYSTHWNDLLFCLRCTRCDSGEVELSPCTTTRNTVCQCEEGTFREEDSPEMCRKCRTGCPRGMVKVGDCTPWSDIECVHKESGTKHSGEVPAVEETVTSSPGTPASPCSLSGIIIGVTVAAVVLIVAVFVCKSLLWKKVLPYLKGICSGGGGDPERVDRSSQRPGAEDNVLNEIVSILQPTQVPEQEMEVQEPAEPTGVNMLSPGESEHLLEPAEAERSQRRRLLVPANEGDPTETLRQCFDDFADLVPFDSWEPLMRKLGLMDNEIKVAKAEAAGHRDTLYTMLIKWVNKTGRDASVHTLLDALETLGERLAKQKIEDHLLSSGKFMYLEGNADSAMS
- measurementDescription: compound enhancement of TRAIL-induced cell killing – NB7 cells plus caspase-8, luminescence, panel, dose response (AID 652002)
- studyConditions: NB7 neuroblastoma +caspase-8, TRAIL sensitization, luminescence viability; NB7+Caspase-8; with TRAIL, mean of runs
Calls of active or inactive are those of the source. No rule for the calls is given here.
observedProperty: EC50

Some compounds with recorded EC50:
compound	val
O=C1Cc2c(-c3ccccc3)cc(-c3cccc(Cl)c3)nc2-c2ccccc2N1	> 12.5 µM (inactive)
COCCNc1c(-c2cc3ccc(C)c(C)c3[nH]c2=O)nc2ccccn12	inactive
CCCCCCc1cc2cc(S(=O)(=O)c3ccc(F)c(Cl)c3)c(=O)oc2cc1O	> 12.5 µM (inactive)
O=C1CCCCC1Sc1nnc(-c2ccc3c(c2)OCO3)o1 (configuration not stated)	> 12.5 µM (inactive)
COc1ccccc1/C=C/C=N/n1c(-c2cc(-c3ccccc3)n[nH]2)n[nH]c1=S	> 12.5 µM (inactive)

Hello, I would appreciate it if you could give EC50 for each entry below.
1. COc1cc(NC(=O)c2cncc(-c3ccc(C#N)cc3)c2)cc(C(=O)Nc2cccc(C(F)(F)F)c2)c1
2. CCC(C)c1ccc(O)c(NC(=S)NC(=O)c2cccs2)c1 (configuration not stated)

Result:
1. > 12.5 µM (inactive)
2. inactive
